Each record here notes measured pKi.
- assayedTarget: HCV NS3 protease domain (Hepatitis C virus genotype 1b, UniProt Q9WMX2)
- Construct: The first 181 amino acids of NS3 (residues 1027-1207 of the viral polyprotein); hexa-histidine (C); made in house; host or cells: E. coli BL21/DE3 pLysS
- Sequence (Q9WMX2 1027-1207, other chains not shown): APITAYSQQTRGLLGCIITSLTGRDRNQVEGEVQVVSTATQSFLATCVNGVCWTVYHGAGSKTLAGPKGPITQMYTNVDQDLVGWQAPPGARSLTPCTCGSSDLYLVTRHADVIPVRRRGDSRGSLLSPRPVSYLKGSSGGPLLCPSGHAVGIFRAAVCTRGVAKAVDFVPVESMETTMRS
- measurementDescription: biochemical
- measurementSetup: Enzyme Assay 1 (HCV NS3 Protease Domain Peptide Cleavage Assay) activity, apparent Ki class
pKi: −log10 of the molar value.

As a guide, the following entries are already answered.
>>> result("CCC[C@H](NC(=O)[C@@H]1C[C@]2(CC(c3cc(F)cc(F)c3)=NO2)CN1C(=O)[C@@H](NC(=O)O[C@H]1CCOC1)C(C)(C)C)C(=O)C(=O)NC1CC1")
"< 6.30"
>>> result("CCC[C@H](NC(=O)[C@@H]1C[C@]2(CC(c3cccc(Cl)c3)=NO2)CN1C(=O)[C@@H](NC(=O)NCC(N)=O)C(C)(C)C)C(=O)C(=O)NC1CC1")
"> 7.00"
>>> result("CC(C)(C)OC(=O)N[C@H]1CCCCC/C=C\\[C@@H]2C[C@@]2(C(=O)O)NC(=O)[C@@H]2C[C@]3(CC(C(=O)c4ccccc4)=NO3)CN2C1=O")
"< 6.30"
>>> result("CCC[C@H](NC(=O)[C@@H]1C[C@]2(CC(c3cccc(C(F)(F)F)c3)=NO2)CN1C(=O)[C@@H](NC(=O)O[C@H]1CCOC1)C(C)(C)C)C(=O)C(=O)NC1CC1")
"6.30 to 7.00"

Memo: CCC[C@H](NC(=O)[C@@H]1C[C@]2(CC(c3cccc(Cl)c3)=NO2)CN1C(=O)[C@@H](NC(=O)CC1CCCCC1)C(C)(C)C)C(=O)C(=O)NCCC1C(=O)Nc2ccccc21 (some centres unmarked) , reported pKi: < 6.30
